# assayed-system: Kdr (Homo sapiens, UniProt P35968)
# Construct: Kinases are expressed as either kinase domains or full length constructs; made in house
# Sequence (P35968 20-1356, species assumed): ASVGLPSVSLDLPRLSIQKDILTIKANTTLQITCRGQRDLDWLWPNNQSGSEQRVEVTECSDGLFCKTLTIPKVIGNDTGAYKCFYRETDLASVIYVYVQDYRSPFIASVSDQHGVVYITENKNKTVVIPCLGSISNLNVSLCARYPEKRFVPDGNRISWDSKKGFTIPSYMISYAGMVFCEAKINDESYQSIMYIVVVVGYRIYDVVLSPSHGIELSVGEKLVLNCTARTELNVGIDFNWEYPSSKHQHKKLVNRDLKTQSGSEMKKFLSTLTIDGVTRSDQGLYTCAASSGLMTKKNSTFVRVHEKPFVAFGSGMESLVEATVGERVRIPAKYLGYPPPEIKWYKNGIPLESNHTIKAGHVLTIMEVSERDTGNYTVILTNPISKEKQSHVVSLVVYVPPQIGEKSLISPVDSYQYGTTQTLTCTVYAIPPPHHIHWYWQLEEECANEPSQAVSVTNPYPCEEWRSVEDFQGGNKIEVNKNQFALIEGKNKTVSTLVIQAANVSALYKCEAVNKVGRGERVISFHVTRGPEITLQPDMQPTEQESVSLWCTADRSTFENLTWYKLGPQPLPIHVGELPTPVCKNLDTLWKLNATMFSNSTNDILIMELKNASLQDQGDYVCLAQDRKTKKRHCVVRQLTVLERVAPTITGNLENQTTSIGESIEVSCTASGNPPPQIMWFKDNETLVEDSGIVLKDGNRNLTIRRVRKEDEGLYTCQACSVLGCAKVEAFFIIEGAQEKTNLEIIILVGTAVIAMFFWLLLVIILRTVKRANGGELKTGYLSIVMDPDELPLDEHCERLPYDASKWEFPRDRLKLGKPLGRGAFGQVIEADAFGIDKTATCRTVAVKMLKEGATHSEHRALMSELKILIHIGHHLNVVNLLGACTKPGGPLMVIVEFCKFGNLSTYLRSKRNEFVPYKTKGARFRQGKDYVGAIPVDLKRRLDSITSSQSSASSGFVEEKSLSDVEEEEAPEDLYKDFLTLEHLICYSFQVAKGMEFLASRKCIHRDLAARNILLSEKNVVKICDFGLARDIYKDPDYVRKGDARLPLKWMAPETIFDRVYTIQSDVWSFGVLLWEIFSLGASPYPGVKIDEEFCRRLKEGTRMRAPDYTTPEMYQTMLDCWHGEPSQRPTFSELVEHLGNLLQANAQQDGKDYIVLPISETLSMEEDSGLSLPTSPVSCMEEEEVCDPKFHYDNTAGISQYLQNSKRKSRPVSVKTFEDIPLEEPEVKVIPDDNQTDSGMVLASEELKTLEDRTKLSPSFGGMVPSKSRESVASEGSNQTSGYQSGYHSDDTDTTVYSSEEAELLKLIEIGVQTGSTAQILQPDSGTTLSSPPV
# assay-remarks: Kinase inhibition assay (33P transfer), Kdr
# Format: biochemical
# stated-conditions: read-out: KDR-1
# Excerpt: The inhibitor compounds described herein are screened in the following manner. […] Kinases are expressed as either kinase domains or full length constructs fused to glutathione S-transferase (GST) or polyHistidine tagged fusion proteins in either E. colior Baculovirus-High Five expression systems. […]
measure-name: IC50

Below, each entry is followed by its recorded IC50 result.
Enquiry: Quick one: IC50 for Cc1ccc(Nc2ncnc(Nc3cccc(CC(=O)O)c3)n2)cc1O ?
Return: < 1140 nM

Enquiry: Quick one: IC50 for C=CCNc1nc2ccccc2n1-c1ncnc(Nc2cc(OC)c(OC)c(OC)c2)n1 ?
Return: < 923 nM

Further cases:
Enquiry: Quick one: IC50 for Cc1cccc(Nc2ncnc(N(C)c3cccc(Br)c3)n2)c1 ?
Return: > 12200 nM

Enquiry: Quick one: IC50 for CC(C)(C)c1cc(Nc2ncnc(Nc3cccc(CO)c3)n2)[nH]n1 ?
Return: 1180 to 7070 nM

Enquiry: Quick one: IC50 for O=C(O)Cc1cccc(Nc2ncnc(-n3c(NCc4ccccc4)nc4ccccc43)n2)c1 ?
Return: < 886 nM

Enquiry: Quick one: IC50 for CCc1ccc(Nc2ncnc(-n3c(N)nc4ccccc43)n2)cc1 ?
Return: 1210 to 7240 nM

###

Reported IC50 is given for each of the following compounds.
# assayed-system: Zap-70 (Homo sapiens, UniProt P43403)
# Construct: Kinases are expressed as either kinase domains or full length constructs; made in house
# Sequence (P43403 1-619): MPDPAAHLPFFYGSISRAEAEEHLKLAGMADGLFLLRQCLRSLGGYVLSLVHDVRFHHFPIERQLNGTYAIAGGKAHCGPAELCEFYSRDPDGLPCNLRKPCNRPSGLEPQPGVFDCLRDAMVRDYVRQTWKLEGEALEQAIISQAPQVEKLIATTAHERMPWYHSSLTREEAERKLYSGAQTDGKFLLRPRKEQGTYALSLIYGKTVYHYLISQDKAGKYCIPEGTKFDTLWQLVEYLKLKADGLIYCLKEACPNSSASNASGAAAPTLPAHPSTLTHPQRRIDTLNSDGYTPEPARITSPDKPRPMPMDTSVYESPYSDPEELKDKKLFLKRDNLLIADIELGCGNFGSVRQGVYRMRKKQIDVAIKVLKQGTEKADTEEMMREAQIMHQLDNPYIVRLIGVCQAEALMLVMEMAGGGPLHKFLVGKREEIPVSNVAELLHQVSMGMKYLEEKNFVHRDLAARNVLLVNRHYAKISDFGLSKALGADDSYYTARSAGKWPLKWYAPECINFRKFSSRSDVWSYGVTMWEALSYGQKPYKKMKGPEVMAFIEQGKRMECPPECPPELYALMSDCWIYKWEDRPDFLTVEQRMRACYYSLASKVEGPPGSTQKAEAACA
# assay-remarks: Kinase inhibition assay (33P transfer), Zap-70
# Format: biochemical
# stated-conditions: Table 3; read-out: Zap-1

Enquiry: Quick one: IC50 for COc1cc(Nc2ncnc(-c3cccc(Cl)c3)n2)cc(OC)c1OC ?
Return: > 12.1 µM

Enquiry: Quick one: IC50 for COc1cc(Nc2ncnc(-c3ccncc3)n2)cc(OC)c1OC ?
Return: > 13.3 µM

Enquiry: Quick one: IC50 for COc1ccc(Nc2ncnc(-c3cccs3)n2)cc1OC ?
Return: > 14.3 µM

Enquiry: Quick one: IC50 for NS(=O)(=O)c1ccc(CNc2ncnc(-n3c(=O)[nH]c4ccccc43)n2)cc1 ?
Return: > 11.3 µM

Enquiry: Quick one: IC50 for COCCOc1ccc(Nc2ncnc(-n3c(N)nc4ccccc43)n2)cc1OCCOC ?
Return: > 9.97 µM

Further cases:
Enquiry: Quick one: IC50 for NC(=O)c1cccc(Nc2ncnc(-n3c(N)nc4ccccc43)n2)c1 ?
Return: > 13 µM

Enquiry: Quick one: IC50 for COc1ccc(Nc2ncnc(-n3c(N)nc4ccccc43)n2)cc1OC ?
Return: > 12.4 µM

Enquiry: Quick one: IC50 for c1csc(-c2ncnc(Nc3ccncc3)n2)c1 ?
Return: > 17.6 µM

Enquiry: Quick one: IC50 for COc1cc(Nc2ncnc(-n3c(Nc4cc(OC)c(OC)c(OC)c4)nc4ccccc43)n2)cc(OC)c1OC ?
Return: > 8.04 µM

Enquiry: Quick one: IC50 for C#Cc1cccc(Nc2ncnc(Nc3ccc(OC)c(OC)c3)n2)c1 ?
Return: > 13 µM

Enquiry: Quick one: IC50 for OCc1ccc(Nc2ncnc(Nc3cc(-c4ccco4)n[nH]3)n2)cc1 ?
Return: > 12.9 µM

###

# assayed-system: Lck (Homo sapiens)
# Construct: Kinases are expressed as either kinase domains or full length constructs; made in house
# Sequence (P06239 whole entry, species assumed, the tested form may be a part): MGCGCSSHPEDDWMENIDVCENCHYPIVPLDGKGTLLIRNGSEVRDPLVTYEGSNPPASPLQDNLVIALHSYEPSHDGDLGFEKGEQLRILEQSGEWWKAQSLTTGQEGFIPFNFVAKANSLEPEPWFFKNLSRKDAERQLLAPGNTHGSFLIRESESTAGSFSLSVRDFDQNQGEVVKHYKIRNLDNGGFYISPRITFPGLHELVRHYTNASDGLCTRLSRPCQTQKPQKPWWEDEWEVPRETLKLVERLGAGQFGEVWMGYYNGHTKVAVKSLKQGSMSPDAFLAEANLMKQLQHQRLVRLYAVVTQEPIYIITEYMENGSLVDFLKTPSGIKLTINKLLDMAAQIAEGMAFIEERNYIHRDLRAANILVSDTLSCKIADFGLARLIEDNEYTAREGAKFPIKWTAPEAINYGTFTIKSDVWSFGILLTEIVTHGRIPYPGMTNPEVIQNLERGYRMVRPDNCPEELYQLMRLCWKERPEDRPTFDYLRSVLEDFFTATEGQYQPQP
# assay-remarks: Kinase inhibition assay (33P transfer), Lck
# Format: biochemical
# stated-conditions: Table 3; read-out: Lck-1
pIC50: −log10 of the molar value.
measure-name: pIC50

Enquiry: Quick one: pIC50 for COc1cc(Nc2ncnc(Nc3ccc4ccccc4c3)n2)cc(OC)c1OC [Compound 96] ?
Return: 5.23 to 6.00

Enquiry: Quick one: pIC50 for COc1cc(Nc2ncnc(Nc3cc(C(C)(C)C)[nH]n3)n2)cc(OC)c1OC [Compound 313] ?
Return: 5.22 to 6.00

Enquiry: Quick one: pIC50 for COc1cc(Nc2ncnc(-n3ccc4cc(OCc5ccccc5)ccc43)n2)cc(OC)c1OC [Compound 200] ?
Return: 5.03 to 5.14

Enquiry: Quick one: pIC50 for COc1cc2ccn(-c3ncnc(Nc4cc(OC)c(OC)c(OC)c4)n3)c2cc1OC [Compound 239] ?
Return: < 4.99

Enquiry: Quick one: pIC50 for NC(=O)c1cccc(Nc2ncnc(-n3c(N)nc4ccccc43)n2)c1 [Compound 395] ?
Return: 5.00 to 5.16

Enquiry: Quick one: pIC50 for COc1cc(Nc2ncnc(-n3c(NC(=O)c4ccccc4)nc4ccccc43)n2)cc(OC)c1OC [Compound 435] ?
Return: < 5.04

Further cases:
Enquiry: Quick one: pIC50 for Nc1ncnc(Nc2nc(-c3ccccc3)cs2)n1 [Compound 1020] ?
Return: < 4.78

Enquiry: Quick one: pIC50 for COc1cc(Nc2ncnc(Nc3cc(-c4ccccc4)nn3C)n2)cc(OC)c1OC [Compound 394] ?
Return: 5.26 to 6.03

Enquiry: Quick one: pIC50 for Nc1ncnc(Nc2cc(Cl)ccc2O)n1 [Compound 1022] ?
Return: < 4.72

Enquiry: Quick one: pIC50 for COc1cc(Nc2ncnc(-n3c(=O)sc4cc(Br)ccc43)n2)cc(OC)c1OC [Compound 426] ?
Return: < 5.04

Enquiry: Quick one: pIC50 for CCOC(=O)Cc1ccc(Nc2ncnc(Nc3cc(-c4ccco4)n[nH]3)n2)cc1 [Compound 432] ?
Return: < 4.95

Enquiry: Quick one: pIC50 for COc1cc(Nc2ncnc(N3CCCC4CCCCC43)n2)cc(OC)c1OC (stereo not shown) [Compound 314] ?
Return: > 6.00

Enquiry: Quick one: pIC50 for COc1cc(Nc2ncnc(Nc3ccc(C)cc3)n2)cc(OC)c1OC [Compound 930] ?
Return: 5.18 to 5.96

Enquiry: Quick one: pIC50 for COc1cc(Nc2ncnc(Nc3ccc(O)cc3C)n2)cc(OC)c1OC [Compound 927] ?
Return: 5.04 to 5.20

Enquiry: Quick one: pIC50 for CCOC(=O)Cc1ccc(Nc2ncnc(Nc3cc(OC)c(OC)c(OC)c3)n2)cc1 [Compound 62] ?
Return: 5.26 to 6.04

Enquiry: Quick one: pIC50 for COc1cc(C)c(Nc2ncnc(-c3cccs3)n2)cc1OC [Compound 359] ?
Return: < 4.86

Enquiry: Quick one: pIC50 for COc1ccc(Nc2nc3ccccc3n2-c2ncnc(Nc3cc(OC)c(OC)c(OC)c3)n2)cc1 [Compound 397] ?
Return: > 6.10

Enquiry: Quick one: pIC50 for Nc1ncnc(Nc2cccc(Nc3ncnc(N)n3)c2)n1 [Compound 1027] ?
Return: < 4.82

Enquiry: Quick one: pIC50 for COC(=O)c1ccc(Nc2ncnc(Nc3cc(-c4ccco4)n[nH]3)n2)cc1 [Compound 366] ?
Return: 5.03 to 5.20

Enquiry: Quick one: pIC50 for Cc1cccc(Nc2ncnc(Nc3ccc(O)cc3)n2)c1 [Compound 107] ?
Return: 5.09 to 5.87

Enquiry: Quick one: pIC50 for COc1cc(Nc2ncnc(-c3ccnc(NCCCN)c3)n2)cc(OC)c1OC [Compound 45] ?
Return: 5.23 to 6.01

Enquiry: Quick one: pIC50 for COc1cc(Nc2ncnc(Nc3ccc(O)cc3)n2)cc(OC)c1OC [Compound 85] ?
Return: > 5.97

Enquiry: Quick one: pIC50 for COc1cc(Nc2ncnc(-n3c(Nc4cccc(C(N)=O)c4)nc4ccccc43)n2)cc(OC)c1OC [Compound 377] ?
Return: 5.33 to 6.11

Enquiry: Quick one: pIC50 for Nc1ncnc(Nc2nc(-c3ccc(Cl)cc3)cs2)n1 [Compound 1016] ?
Return: < 4.83

Enquiry: Quick one: pIC50 for COc1cc(Nc2ncnc(-n3c(Nc4cc(OC)c(OC)c(OC)c4)nc4ccccc43)n2)cc(OC)c1OC [Compound 402] ?
Return: < 5.09
